- Test system: K562
- assay.remarks: NCI tumour cell line growth inhibition, 48 h
The source made the active and inactive calls. Rule as the data show it: active = GI50 up to about 1.1 µM and inactive = higher.
Listed molecules paired with reported GI50

- molecule: "COc1cc(S(=O)(=O)Nc2ccc(-c3csc(N4C(=O)C(C)SC4c4cccc(Oc5ccccc5)c4)n3)cc2)ccc1Cl (stereo unspecified)"
  GI50: "36.5 µM (inactive)"
- molecule: "COc1ccc(C(=O)C(c2ccc(OC)cc2)C2OC(=O)C(Cl)=C2Cl)cc1 (stereo unspecified)"
  GI50: "> 100 µM (inactive)"
- molecule: "OC(Cc1cc(CC(O)(C(F)(F)F)C(F)(F)F)nc(CC(O)(C(F)(F)F)C(F)(F)F)c1)(C(F)(F)F)C(F)(F)F"
  GI50: "> 10 µM (inactive)"
- molecule: "O=c1[nH]nc(-c2cccc([N+](=O)[O-])c2)[nH]1"
  GI50: "> 100 µM (inactive)"
- molecule: "Clc1cc2nc(C3CCCO3)[nH]c2cc1Cl (stereo unspecified)"
  GI50: "38.5 µM (inactive)"
- molecule: "CCOC(=O)CC[C@@H](NC(=O)c1ccc(NCc2ccc3nc(OC)c(OC)nc3c2)cc1)C(=O)OCC"
  GI50: "46.8 µM (inactive)"
- molecule: "COc1cc2c(cc1OC)C1=Cc3cc(OC)c(OC)cc3C(C)N1C=C2 (stereo unspecified)"
  GI50: "25.9 µM (inactive)"
- molecule: "NCCCCNC1(c2cc3ccccc3s2)CCCCC1"
  GI50: "1.59 µM (inactive)"
- molecule: "CCOc1cc2oc(C)cc(=O)c2c(OC)c1/C=N/c1ccc(Cn2c(C)nc3ccccc32)cc1"
  GI50: "> 100 µM (inactive)"
- molecule: "CC(=O)NC1=C(C)C(=O)c2c(nc3n2CCC3OC(=O)CCl)C1=O (stereo unspecified)"
  GI50: "2.19 µM (inactive)"
- molecule: "COC(=O)C(=O)C(C(=O)Nc1cccc(C)c1C)C1Sc2ccccc2NC1=O (stereo unspecified)"
  GI50: "9.79 µM (inactive)"
